- study_system: TrkC (Homo sapiens, UniProt Q16288)
- Sequence (Q16288 32-839): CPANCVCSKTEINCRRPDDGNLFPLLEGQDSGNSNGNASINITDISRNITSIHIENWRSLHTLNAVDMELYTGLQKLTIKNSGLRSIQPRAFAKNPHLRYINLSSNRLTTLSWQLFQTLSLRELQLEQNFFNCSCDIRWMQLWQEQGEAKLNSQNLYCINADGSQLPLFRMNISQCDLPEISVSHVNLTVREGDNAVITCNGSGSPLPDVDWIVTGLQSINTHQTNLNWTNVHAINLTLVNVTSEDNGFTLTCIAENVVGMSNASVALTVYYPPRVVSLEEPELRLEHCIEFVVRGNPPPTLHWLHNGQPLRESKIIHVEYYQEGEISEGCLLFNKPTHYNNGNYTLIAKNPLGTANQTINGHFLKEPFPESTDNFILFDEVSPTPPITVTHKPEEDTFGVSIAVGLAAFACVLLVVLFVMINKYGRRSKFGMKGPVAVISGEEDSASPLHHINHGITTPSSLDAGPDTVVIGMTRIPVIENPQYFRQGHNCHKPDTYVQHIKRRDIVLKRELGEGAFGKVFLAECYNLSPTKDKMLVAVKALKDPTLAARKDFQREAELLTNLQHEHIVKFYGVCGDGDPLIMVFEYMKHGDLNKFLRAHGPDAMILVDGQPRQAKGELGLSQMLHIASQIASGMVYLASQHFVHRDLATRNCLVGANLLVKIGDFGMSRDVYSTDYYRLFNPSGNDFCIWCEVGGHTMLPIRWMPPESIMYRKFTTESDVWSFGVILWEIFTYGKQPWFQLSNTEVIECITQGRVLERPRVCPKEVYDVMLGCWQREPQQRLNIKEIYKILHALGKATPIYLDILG
- experiment: HTRF KinEASE kinase assay, recombinant Human TRK enzyme, TrkC (NTRK3)
- experimental_parameters: NTRK3 10 nM, read-out: TrkC Enz
assay_metric: IC50 (nM)

[
  {
    "structure_notation": "CSc1cc(F)cc([C@H]2C[C@H](F)CN2c2ccc3ncc(C(=O)NC4CCN(Cc5ccc(F)c(O)c5)CC4)n3n2)c1",
    "IC50, nM": 1.97
  },
  {
    "structure_notation": "CSc1ccc(F)cc1[C@H]1C[C@H](F)CN1c1ccc2ncc(C(=O)N[C@H]3CCN(Cc4ccc(F)c(O)c4)C3)n2n1",
    "IC50, nM": 2.46
  },
  {
    "structure_notation": "CSc1cc(F)cc([C@H]2C[C@H](F)CN2c2ccc3ncc(C(=O)NC4CN(Cc5cccc(O)c5)C4)n3n2)c1",
    "IC50, nM": 3.72
  },
  {
    "structure_notation": "CCCCC(=O)Oc1cccc(CN2CC[C@H](NC(=O)c3cnc4ccc(N5C[C@@H](F)C[C@@H]5c5cc(F)ccc5SC)nn34)C2)c1",
    "IC50, nM": 8.43
  }
]

1. CSc1cc(F)cc([C@H]2C[C@H](F)CN2c2ccc3ncc(C(=O)NCc4ccc(F)c(O)c4)n3n2)c1
2. CSc1cc(F)cc([C@H]2CCCN2c2ccc3ncc(C(=O)N[C@H]4CCN(Cc5ccc(F)c(O)c5)C4)n3n2)c1
3. CSc1ccc(F)cc1[C@H]1C[C@H](F)CN1c1ccc2ncc(C(=O)NC3CCN(Cc4cccc(O)c4)CC3)n2n1
4. CSc1ccc(F)cc1[C@H]1C[C@H](F)CN1c1ccc2ncc(C(=O)NC3CN(Cc4ccc(F)c(O)c4)C3)n2n1
Exam item: list the entries in increasing order of IC50. Labels, ranked as asked. 3, 4, 1, 2
